Hello, the source for this data is ChEMBL document CHEMBL1201862, in case you need it.

tested on: OVCAR-3; assay: NCI tumour cell line growth inhibition, 48 h
Calls of active or inactive are those of the source. Rule as the data show it: active = GI50 up to about 1.1 µM and inactive = higher.
Assign a class; possible classes are True (active), False (inactive)

Recorded call for `O=[N+]([O-])c1ccc2nc3ccscc-3c2c1` ?
False

Recorded call for Cc1ccc(S(=O)(=O)C(C#N)c2nc3ccccc3nc2-n2ccnc2)cc1 (configuration not stated) ?
False

Recorded call for CCOC(=O)C(NNS(=O)(=O)c1ccc(C)cc1)S(=O)(=O)C(F)(F)C(F)(F)C(F)(F)C(F)(F)F (configuration not stated) ?
False

Recorded call for Clc1cc(Cl)cc(C2ON=C(c3ccccc3)N2C23CC4CC(CC(C4)C2)C3)c1 (configuration not stated) ?
False

More entries:
Recorded call for `O=[N+]([O-])c1ccc(O)c(/C=N/c2nc(-c3ccccc3)cs2)c1` ?
False

Recorded call for NC1(C(=O)O)CCC(C(=O)O)CC1 (configuration not stated) ?
False

Recorded call for O=C1C(Cl)N(c2ccc(Cl)cc2Cl)C1c1c[nH]c2ccccc12 (configuration not stated) ?
False

Recorded call for `NS(=O)(=O)c1ccc(NCc2cccc3c(=O)c4ccc(Cl)cc4oc23)cc1` ?
False

Recorded call for `O=P(O)(O)C=C=C1CCCCC1` ?
False

----------
system: IGROV-1; assay: NCI tumour cell line growth inhibition, 48 h
Activity calls are given as the source filed them. Rule as the data show it: active = GI50 up to about 1.1 µM and inactive = higher.
measurementName: GI50

See these solved cases before continuing.
The value of GI50 measured for the molecule `O=c1cccccc1NCCOCCNc1cccccc1=O` turned out to be > 100 µM (inactive)

The value of GI50 measured for the molecule `CCOc1ccc(/N=N/c2ccc(-c3ccc(/N=N/c4c(O)ccc5cc(S(=O)(=O)O)cc(S(=O)(=O)O)c45)cc3)cc2)cc1` turned out to be > 100 µM (inactive)

The value of GI50 measured for the molecule `Cc1ccc(S(=O)(=O)Oc2ccc(OS(=O)(=O)c3ccc(C)cc3)c3c2C(=O)c2ccccc2C3=O)cc1` turned out to be > 100 µM (inactive)

The value of GI50 measured for the molecule `CCOC(=O)/C(=C\NCc1ccc2c(c1)OCO2)c1nc2ccccc2[nH]1` turned out to be 40.3 µM (inactive)

The value of GI50 measured for the molecule `O=C(CO)CC(=O)C(=O)Nc1nc([N+](=O)[O-])cs1` turned out to be > 100 µM (inactive)

Let us examine a further case.
The value of GI50 measured for the molecule CC1C2=C(O)CC(C)(C)CC2=NC2=C1C(=O)CC(C)(C)C2 (stereo not drawn) turned out to be > 100 µM (inactive)

----------
test system: RXF 393; assay: NCI tumour cell line growth inhibition, 48 h
Calls of active or inactive are those of the source. Rule as the data show it: active = GI50 up to about 1.1 µM and inactive = higher.
measurementName: GI50

See these solved cases before continuing.
The value of GI50 measured for the molecule CCOC(=O)C(C)NC(=O)C(C)NC(=O)C(C)NC(=O)C(C)NC(=O)C(C)NC(=O)OCc1ccccc1 (configuration not stated) turned out to be > 100 µM (inactive)

The value of GI50 measured for the molecule `Cc1cc(N(CCC#N)CCC#N)ccc1/N=N/c1ccc([N+](=O)[O-])cc1` turned out to be 32.5 µM (inactive)

The value of GI50 measured for the molecule `CCOC(=O)C(C)(C)Oc1ccc2c(=O)cc(-c3ccc(Cl)cc3)oc2c1` turned out to be > 100 µM (inactive)

The value of GI50 measured for the molecule `c1ccc(CN(Cc2ccccn2)Cn2cccn2)nc1` turned out to be 57.5 µM (inactive)

The value of GI50 measured for the molecule `O=C(/C=C/c1ccc2ccccc2c1)NCc1ccc(C(=O)NCc2ccccc2)cc1` turned out to be 41.8 µM (inactive)

More entries:
The value of GI50 measured for the molecule `O=C(/N=C(/Nc1ccccc1)SCS/C(=N\C(=O)c1ccco1)Nc1ccccc1)c1ccco1` turned out to be 15.1 µM (inactive)

The value of GI50 measured for the molecule Clc1cc(Cl)cc(C2ON=C(c3ccccc3)N2C23CC4CC(CC(C4)C2)C3)c1 (configuration not stated) turned out to be > 10 µM (inactive)

The value of GI50 measured for the molecule `CC(=O)[O-].Cc1ncc(CO)c(/C=N/NC(N)=S)c1[O-].[Zn+2]` turned out to be > 100 µM (inactive)

The value of GI50 measured for the molecule `C=CCOC(=O)/C(=C\c1ccc(OC)c(OC)c1)c1ccc(OC)c(OC)c1` turned out to be 27.9 µM (inactive)

The value of GI50 measured for the molecule `CC(C)(C)OC(=O)N[C@@H](Cc1ccccc1)C(=O)N1CC[C@@H](C(=O)N2[C@H]3CC4CC[C@@]3(CS2(=O)=O)C4(C)C)N1` turned out to be > 100 µM (inactive)

The value of GI50 measured for the molecule `C=CCN1C(=O)/C(=C/c2ccc(Cl)cc2)N=C1SC/C=C/C` turned out to be 15.7 µM (inactive)

The value of GI50 measured for the molecule `NC(=O)C[C@H](NC(=O)C1(NC(=O)[C@H](Cc2ccc(CP(=O)(O)O)cc2)NC(=O)C(=O)O)CCCCC1)C(=O)NCCCc1cccc2ccccc12` turned out to be > 10 µM (inactive)
